Recorded values, source the supplement of paper PMC10065799.

Test system: c-Src;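 note: 11-residue human phosphosite peptides and single-mutation variants displayed on the E. coli surface, counted by deep sequencing, each peptide's frequency after selection divided by its frequency in the unselected input library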;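 note: frequency after pTyr selection over input frequency; kinase dosed for 20-30% of maximal phosphorylation in three min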
Assay: phosphorylation enrichment, bacterial display (enrichment ratio); higher = better substrate or ligand; peptides without Tyr show the background
Rule: phosphorylation enrichment under 0.5 gives Not fulfilled, otherwise Fulfilled.

Use the examples below as a reference point.
[[record]]
sequence_content = "TFLRTYTDTMQ [TSPAN7_Y124_A127T]"
tgt = "c-Src"
category_label = "Not fulfilled"

[[record]]
sequence_content = "EVKAQNEDIAQ [KRT1_Y358_Y358N]"
tgt = "c-Src"
category_label = "Not fulfilled"

[[record]]
sequence_content = "LFMGDYVGRGF [PPP2CA_Y86_D88G_YF]"
tgt = "c-Src"
category_label = "Fulfilled"


Determine whether this sequence has phosphorylation enrichment no lower than 0.5: FTTIHYNFMCN [TP53_Y234_C229Y_YF]
Not fulfilled

Determine whether this sequence has phosphorylation enrichment no lower than 0.5: ITVCDYTNPCT [MYD88_Y276]
Fulfilled

Determine whether this sequence has phosphorylation enrichment no lower than 0.5: FKNGDYNEVMK [LCT_Y1638]
Not fulfilled

Determine whether this sequence has phosphorylation enrichment no lower than 0.5: SVVVPCEPPEV [TP53_Y220_Y220C]
Not fulfilled

Determine whether this sequence has phosphorylation enrichment no lower than 0.5: RFVTRHIFNRE [HLA-DQB1_Y62_Y62H_YF]
Fulfilled
